- experimental_target: UniProt P00735
- test_summary: thrombin protease inhibitors – biochemical, fluorescence polarization, uHTS hits, dose response (AID 602369)
- Type: functional
The source made the active and inactive calls.
Classes used: active, inactive

{"columns": ["record_smiles", "answer_label"],
 "data": [
  ["COc1ccccc1Cc1c(-c2cccc(Cl)c2)nc2ccc(Br)cn12", "active"],
  ["C/C(=N\\Nc1ccc([N+](=O)[O-])cc1)c1cc2ccccc2o1", "active"],
  ["COc1ccc(/C(C)=N/NC(=O)c2nnn(-c3nonc3N)c2-c2ccccc2)cc1", "inactive"],
  ["Cc1ccc(CNC(=O)c2nnn(CC(=O)Nc3cc(C)cc(C)c3)c2N)cc1", "active"]
]}

###

- experimental_target: Streptokinase A (Streptococcus pyogenes serotype M1)
- Sequence (P10520 whole entry): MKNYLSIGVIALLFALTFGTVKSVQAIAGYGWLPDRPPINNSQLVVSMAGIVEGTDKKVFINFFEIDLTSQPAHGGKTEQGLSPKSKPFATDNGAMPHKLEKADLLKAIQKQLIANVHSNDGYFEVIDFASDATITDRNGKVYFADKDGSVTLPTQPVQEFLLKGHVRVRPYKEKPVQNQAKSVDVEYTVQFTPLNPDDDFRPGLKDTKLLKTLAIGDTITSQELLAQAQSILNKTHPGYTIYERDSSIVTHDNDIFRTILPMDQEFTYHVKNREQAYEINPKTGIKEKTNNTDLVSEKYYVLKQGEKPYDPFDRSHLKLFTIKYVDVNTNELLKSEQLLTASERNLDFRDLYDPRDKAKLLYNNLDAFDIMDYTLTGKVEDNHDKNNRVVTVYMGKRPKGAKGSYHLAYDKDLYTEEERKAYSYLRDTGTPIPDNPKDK
- test_summary: viability-normalized secreted streptokinase activity reduction – plasminogen activation absorbance, OD405, dose response (AID 1914);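 also: secreted streptokinase activity via plasminogen activation per viability signal from cell pellet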
- Assay type: functional, Streptococcus pyogenes M1 GAS
The source made the active and inactive calls.
Parameter: EC50. Scope: all listed entries.

{"columns": ["compound", "EC50"],
 "data": [
  ["Cc1cc2nc(CSc3ccccc3)cc(O)n2n1", "> 150 µM (not active)"],
  ["COc1ccc(C(Nc2cc(C)ccn2)c2ccc3ccc(C)nc3c2O)cc1 (centres undefined)", "> 150 µM (not active)"],
  ["CCCCNC(=O)c1cn(CC(C)C)c(=O)c2c1c1ccccc1n2C", "> 150 µM (not active)"],
  ["Cc1ccc2c(C)c(C(=O)Nc3ccc(S(=O)(=O)Nc4onc(C)c4C)cc3)oc2c1", "> 150 µM (not active)"],
  ["Cc1ccccc1C(=O)Oc1cccc(Nc2ncnc3ccccc23)c1", "34.6 µM (active)"],
  ["CCOC(=O)c1cc(-c2cccs2)nc2c1c(C)nn2-c1ccccn1", "122 µM (active)"],
  ["CC1(C)N=C(N)N=C(Nc2ccccc2)N1", "> 150 µM (not active)"],
  ["NC(=O)c1cc(C(=O)Cc2ccccc2)c[nH]1", "107 µM (active)"],
  ["COc1ccc(CNCC(O)(c2ccc(Cl)cc2)c2ccc(Cl)cc2)cc1", "19.7 µM (active)"],
  ["COc1ccc(C(=O)c2coc3c2C(=O)C(=O)c2ccccc2-3)cc1", "> 150 µM (not active)"],
  ["COc1ccc(N2CCN(C(=S)NC(=O)c3cccs3)CC2)c([N+](=O)[O-])c1", "> 150 µM (not active)"],
  ["CC1CC(C)(C)n2c(O)c(/N=N/C(=N)S)c3cccc1c32 (centres undefined)", "> 150 µM (not active)"],
  ["COc1ccc(-c2cc(C(F)(F)F)nc(NCc3cccs3)n2)cc1", "13.8 µM (active)"],
  ["COc1cc(C(=O)NC(=S)Nc2ccc(Cc3ccncc3)cc2)cc(OC)c1OC", "> 150 µM (not active)"],
  ["Cc1nn2c(NCc3ccccn3)cc(C(C)(C)C)nc2c1-c1ccccc1", "> 150 µM (not active)"],
  ["CC(C)(C)c1cc(C(=O)Nc2ccc(F)cc2)n(Cc2ccc(F)cc2)n1", "2.85 µM (active)"],
  ["O=[N+]([O-])c1ccc(Nc2nc(NCCO)nc(N3CCCC3)n2)cc1", "7.48 µM (active)"],
  ["COc1ccccc1N1CCN(C(=O)/C=C/c2c(Cl)nc3ccccn23)CC1", "> 150 µM (not active)"],
  ["CC1CCN(Cc2c(C(=O)N/N=C/c3cc(Cl)ccc3O)nnn2-c2nonc2N)CC1", "31 µM (active)"]
]}

###

- experimental_target: Short transient receptor potential channel 4 (Mus musculus, UniProt Q9QUQ5)
- Sequence (Q9QUQ5 whole entry): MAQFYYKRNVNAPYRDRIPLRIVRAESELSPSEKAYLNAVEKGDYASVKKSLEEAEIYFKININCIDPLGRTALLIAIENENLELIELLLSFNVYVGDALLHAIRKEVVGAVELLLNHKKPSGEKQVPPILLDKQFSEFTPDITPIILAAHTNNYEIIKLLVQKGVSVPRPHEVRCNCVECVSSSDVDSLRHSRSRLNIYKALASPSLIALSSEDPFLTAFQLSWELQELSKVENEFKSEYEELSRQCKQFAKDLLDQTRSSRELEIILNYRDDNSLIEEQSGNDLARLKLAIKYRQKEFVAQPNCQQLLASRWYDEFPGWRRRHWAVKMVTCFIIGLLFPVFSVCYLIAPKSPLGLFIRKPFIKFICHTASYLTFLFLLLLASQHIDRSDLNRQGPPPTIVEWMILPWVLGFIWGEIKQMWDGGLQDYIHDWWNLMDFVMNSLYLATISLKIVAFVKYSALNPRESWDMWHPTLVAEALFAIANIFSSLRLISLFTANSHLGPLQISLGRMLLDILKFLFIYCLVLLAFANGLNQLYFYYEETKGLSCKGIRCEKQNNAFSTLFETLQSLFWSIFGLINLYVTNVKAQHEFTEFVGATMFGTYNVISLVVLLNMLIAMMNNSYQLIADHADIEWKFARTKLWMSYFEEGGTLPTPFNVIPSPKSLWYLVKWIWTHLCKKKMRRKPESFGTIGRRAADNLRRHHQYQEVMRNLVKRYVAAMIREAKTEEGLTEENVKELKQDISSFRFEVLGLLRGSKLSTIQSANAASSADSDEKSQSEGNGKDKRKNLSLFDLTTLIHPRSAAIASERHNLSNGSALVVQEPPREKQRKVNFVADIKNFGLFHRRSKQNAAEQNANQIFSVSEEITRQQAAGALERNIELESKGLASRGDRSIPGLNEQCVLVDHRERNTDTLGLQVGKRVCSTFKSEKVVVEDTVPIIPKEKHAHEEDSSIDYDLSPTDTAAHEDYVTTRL
- test_summary: block of DAMGO-driven TRPC4 calcium entry – cell-based, HEK293 TRPC4/mu-opioid, Fluo-4 calcium, dose response (AID 434942);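 also: potency of inhibitors blocking the TRPC4 calcium response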
- Assay type: functional
Calls of active or inactive are those of the source.
assay_metric: EC50

{"columns": ["compound", "assay_metric", "test_result"],
 "data": [
  ["CC(=O)c1ccc2c(c1)N(C)c1ccccc1S2", "EC50", "7.5 µM (active)"],
  ["CCN(CC)c1nc2ccccc2c(N)c1-c1ccccc1", "EC50", "2.66 µM (active)"],
  ["O=C(CN1CCCC1)Nc1ccc(Cl)cc1C(=O)c1ccccc1", "EC50", "1.5 µM (active)"],
  ["CN(C)C1(CNC(=O)CC(NC(=O)c2ccccc2Cl)c2ccccc2)CCCCC1 (stereo not drawn)", "EC50", "0.299 µM (active)"],
  ["COc1ccc(/C=C2/SC(=S)N(CCCC(=O)Nc3ccccc3C(=O)O)C2=O)cc1", "EC50", "6.68 µM (active)"],
  ["CCOc1ccc2ccccc2c1CNCCc1ccc(S(N)(=O)=O)cc1", "EC50", "4.73 µM (active)"],
  ["Cc1ccsc1C(=O)C1CCCN(Cc2ccccc2O)C1 (stereo not drawn)", "EC50", "4.22 µM (active)"],
  ["Cc1ccc2nc(C)c3c(c2c1)N(c1ccc(F)cc1)CC3", "EC50", "3.76 µM (active)"]
]}

###

Parameter: IC50. Scope: all listed entries.
- experimental_target: Large T antigen (Simian virus 40, UniProt P03070);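 also: Confirmatory-stage PubChem screen for compounds that inhibit SV40 T antigen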
- Sequence (P03070 whole entry): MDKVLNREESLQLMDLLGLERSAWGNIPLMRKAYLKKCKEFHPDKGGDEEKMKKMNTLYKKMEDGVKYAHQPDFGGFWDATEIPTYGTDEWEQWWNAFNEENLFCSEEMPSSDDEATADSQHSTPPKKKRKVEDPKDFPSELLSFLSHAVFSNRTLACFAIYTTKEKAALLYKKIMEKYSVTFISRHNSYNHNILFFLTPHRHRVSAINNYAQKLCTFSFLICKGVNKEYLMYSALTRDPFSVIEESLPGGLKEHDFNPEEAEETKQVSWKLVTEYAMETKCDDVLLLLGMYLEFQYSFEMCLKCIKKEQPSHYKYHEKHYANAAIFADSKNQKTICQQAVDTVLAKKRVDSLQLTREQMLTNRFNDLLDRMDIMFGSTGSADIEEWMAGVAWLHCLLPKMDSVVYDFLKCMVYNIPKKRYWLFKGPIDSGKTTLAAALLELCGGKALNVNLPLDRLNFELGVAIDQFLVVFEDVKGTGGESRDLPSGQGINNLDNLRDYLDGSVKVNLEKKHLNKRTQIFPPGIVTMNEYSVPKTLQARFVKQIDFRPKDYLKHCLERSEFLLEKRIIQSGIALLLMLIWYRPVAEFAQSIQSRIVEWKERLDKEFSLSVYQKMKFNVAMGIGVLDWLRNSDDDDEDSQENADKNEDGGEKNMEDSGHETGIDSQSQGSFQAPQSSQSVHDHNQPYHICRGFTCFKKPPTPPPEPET
- Type: functional, Betapolyomavirus macacae
Calls of active or inactive are those of the source.

{"columns": ["molecule", "experimental_target", "IC50"],
 "data": [
  ["OC1=C2Sc3ccccc3N=C2CCC1", "Large T antigen (Simian virus 40, UniProt P03070)", "9.55 µM (active)"],
  ["Cn1c(SCC(=O)c2ccc(O)c(O)c2)nnc1-c1cccs1", "Large T antigen (Simian virus 40, UniProt P03070)", "> 100 µM (active)"],
  ["COc1cc(/C=N/NC(=O)c2ccc3[nH]cnc3c2)ccc1O", "Large T antigen (Simian virus 40, UniProt P03070)", "7.38 µM (active)"],
  ["C/C(CC(=O)Nc1ccc2ccccc2c1)=N\\NC(=O)c1ccc(O)c(O)c1", "Large T antigen (Simian virus 40, UniProt P03070)", "14 µM (active)"],
  ["CC(=O)N1CCN(c2ccc(NCc3ccc(C)s3)cc2)CC1", "Large T antigen (Simian virus 40, UniProt P03070)", "3.48 µM (active)"],
  ["COC(=O)/C=C/c1ccc(OC(=O)OC)c(OC(=O)OC)c1", "Large T antigen (Simian virus 40, UniProt P03070)", "12.1 µM (active)"],
  ["COc1cc(C2OCC3C(c4ccc(OC5OC(CO)C(O)C(O)C5O)c(OC)c4)OCC23)ccc1O (centres undefined)", "Large T antigen (Simian virus 40, UniProt P03070)", "21.3 µM (active)"],
  ["COc1ccc(N2CSC3=C(C#N)C(c4cc(OC)ccc4OC)CC(=O)N3C2)c(OC)c1 (centres undefined)", "Large T antigen (Simian virus 40, UniProt P03070)", "63.1 µM (active)"],
  ["COc1cc(/C(C)=N/NC(=O)CSc2nnc(C)s2)ccc1O", "Large T antigen (Simian virus 40, UniProt P03070)", "24.2 µM (active)"],
  ["CC(=O)O[C@H]1C[C@@]2(C)[C@@H](C[C@@H](O)[C@H]3[C@@]4(C)CC[C@@H](O)[C@@H](C)[C@@H]4CC[C@@]32C)/C1=C(/CCC=C(C)C)C(=O)O", "Large T antigen (Simian virus 40, UniProt P03070)", "31.6 µM (active)"],
  ["CN1C(=O)/C(=C/C=C/c2ccco2)C(=O)NC1=S", "Large T antigen (Simian virus 40, UniProt P03070)", "11.9 µM (active)"],
  ["Cc1cc(C=C2C(=O)N(C)C(=S)N(C)C2=O)c(C)n1-c1ccncc1", "Large T antigen (Simian virus 40, UniProt P03070)", "50.2 µM (active)"],
  ["CCOc1cc(-c2ccc(N)c(OCC)c2)ccc1N", "Large T antigen (Simian virus 40, UniProt P03070)", "12.3 µM (active)"],
  ["CN(C)c1ccc(CNc2ccc3c(c2)ncn3C)cc1", "Large T antigen (Simian virus 40, UniProt P03070)", "22.1 µM (active)"]
]}
